Tested on: TTR
assay-method-text: TTR editing in primary human hepatocytes treated with LNP formulated Spy Cas9 mRNA (SEQ ID NO: 2) and sgRNAs (Table 16)
Assay type: cell-based
condition-description: LNP formulated Spy Cas9 mRNA (SEQ ID NO: 2) and sgRNA, 72 hours
Procedure: Primary liver hepatocytes. Primary human liver hepatocytes (PHH) and primary cynomolgus liver hepatocytes (PCH) (Gibco) were cultured per the manufacturer's protocol (Invitrogen, protocol 11.28.2012). […] Cells were counted and plated on Bio-coat collagen I coated 96-well plates (ThermoFisher, Cat. 877272) at a density of 33,000 cells/well for human or 60,000 cells/well for cyno (or 65,000 cells/well when assaying effects on TTR protein, described further below). […]
Strand notation (5' to 3'): a small letter for the sugar, then the base; units joined by * are phosphorothioate-linked, units joined directly phosphodiester-linked; [ ] holds rarer units or linkages, { } end groups; capitals alone tell only the bases. m = 2'-O-methyl; r = 2'-OH (RNA)
parameter-measured: 12.5 ng mRNA, 3.9 nM sgRNA Avg % Edit (%)

>>> data_value("G000570: TTR sgRNA modified sequence, Human, SEQ ID No. 111; guide sequence of CR003347 (nucleic acid) guide: mC*mA*mU*rUrGrArUrGrGrCrArGrGrArCrUrGrCrCrUrGrUrUrUrUrArGrAmGmCmUmAmGmAmAmAmUmAmGmCrArArGrUrUrArArArArUrArArGrGrCrUrArGrUrCrCrGrUrUrArUrCrAmAmCmUmUmGmAmAmAmAmAmGmUmGmGmCmAmCmCmGmAmGmUmCmGmGmUmGmCmU*mU*mU*mU")
88.30
>>> data_value("G000489: TTR sgRNA modified sequence, Human, SEQ ID No. 96; guide sequence of CR003344 (nucleic acid) guide: mU*mU*mU*rGrArCrCrArUrCrArGrArGrGrArCrArCrUrGrUrUrUrUrArGrAmGmCmUmAmGmAmAmAmUmAmGmCrArArGrUrUrArArArArUrArArGrGrCrUrArGrUrCrCrGrUrUrArUrCrAmAmCmUmUmGmAmAmAmAmAmGmUmGmGmCmAmCmCmGmAmGmUmCmGmGmUmGmCmU*mU*mU*mU")
16.85
>>> data_value("G000498: TTR sgRNA modified sequence, Human, SEQ ID No. 105; guide sequence of CR003359 (nucleic acid) guide: mA*mG*mU*rGrArGrUrCrUrGrGrArGrArGrCrUrGrCrArGrUrUrUrUrArGrAmGmCmUmAmGmAmAmAmUmAmGmCrArArGrUrUrArArArArUrArArGrGrCrUrArGrUrCrCrGrUrUrArUrCrAmAmCmUmUmGmAmAmAmAmAmGmUmGmGmCmAmCmCmGmAmGmUmCmGmGmUmGmCmU*mU*mU*mU")
24.43
